Ref: PubChem BioAssay (EPA / NIEHS)

read-out: Apoptosis regulator Bcl-2 (Homo sapiens); test: LTEA_HepaRG_BCL2: Life Technologies and Expression Analysis (LTEA) Assay for Bcl-2 gene using HepaRG (AID 2283475); settings: mRNA level, 48 h; actives raise or lower the signal;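 also: BCL2 transcript by TaqMan qRT-PCR normalised to ACTB GAPDH and POLR2A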
The source made the active and inactive calls. The calls were made as follows: active = hit-call score of the fitted dose curve at least 0.9, where 1 is the maximum; inactive = score below 0.9.
Outcomes: Yes = active, No = inactive

- compound: "CC1(C)NC(=O)NC1=O"
  answer-label: "No"
- compound: "C[C@]12C=CC(=O)C=C1CC[C@@H]1[C@@H]2C(=O)C[C@@]2(C)[C@H]1CC[C@]2(O)C(=O)CO"
  answer-label: "No"
- compound: "CNCc1cc(F)ccc1Oc1ccc(Cl)c(Cl)c1"
  answer-label: "Yes"
- compound: "Clc1cc(Cl)c(Cl)cc1Cl"
  answer-label: "No"
- compound: "C1CCC(SSC2CCCCC2)CC1"
  answer-label: "No"
- compound: "CN1CCN(Cc2cc(-c3ccc4[nH]c(=O)oc4c3)co2)[C@@H](c2ccc(F)cc2)C1"
  answer-label: "No"
- compound: "CCCCCCC(=O)OCC"
  answer-label: "No"
- compound: "COc1cc(C=O)ccc1O"
  answer-label: "No"
- compound: "O=c1[nH]cc(F)c(=O)[nH]1"
  answer-label: "No"
- compound: "Cc1ccc(C)c(O)c1C"
  answer-label: "No"
- compound: "COc1cc(S(=O)(=O)O)c(C)cc1N=Nc1c(O)ccc2cc(S(=O)(=O)O)ccc12"
  answer-label: "No"
- compound: "CCOC(=O)C(C)(C)Oc1ccc(Cl)cc1"
  answer-label: "No"
- compound: "Cc1ccc(C(C)C)c(O)c1"
  answer-label: "No"
- compound: "CCCc1cc(=O)[nH]c(=S)[nH]1"
  answer-label: "No"
- compound: "NCC1(Cc2noc(=O)[nH]2)CCCCC1"
  answer-label: "No"
- compound: "Cc1oc(-c2ccccc2)nc1CCOc1cccc2c1ccn2CCC(=O)O"
  answer-label: "Yes"
- compound: "Cc1cc(NC(=O)C(=O)O)cc(C)c1Oc1ccc(O)c2c1CCC2"
  answer-label: "No"
- compound: "COC(=O)c1ccc(O)cc1"
  answer-label: "No"
- compound: "Nc1ccccc1N"
  answer-label: "No"
- compound: "NS(=O)(=O)c1cc2c(cc1Cl)NCNS2(=O)=O"
  answer-label: "No"

====

read-out: CYP2C8 (gene 1558); assay: LTEA_HepaRG_CYP2C8: Life Technologies and Expression Analysis (LTEA) Assay for CYP2C8 using HepaRG (AID 2283483); conditions: mRNA level, 48 h; actives raise or lower the signal
Active and inactive are the calls of the source. How the source made its calls: active means hit-call score of the fitted dose curve at least 0.9, where 1 is the maximum; inactive means score below 0.9.
Possible outcomes: class 1 = active, class 0 = inactive

- molecule: "CCCCCCCCCCO"
  answer-label: "class 0"
- molecule: "O=[N+]([O-])C(CO)(CO)CO"
  answer-label: "class 0"
- molecule: "CC(=O)OC/C=C(\\C)CCC=C(C)C"
  answer-label: "class 0"
- molecule: "Nc1ccccc1N"
  answer-label: "class 1"
- molecule: "Nc1ccc(S(=O)(=O)c2ccc(N)cc2)cc1"
  answer-label: "class 0"
- molecule: "Cc1ccc(Cl)cc1"
  answer-label: "class 0"
- molecule: "COc1cc(C=O)ccc1O"
  answer-label: "class 0"
- molecule: "Cc1cccc(C)c1O"
  answer-label: "class 0"
- molecule: "CCOC(=O)CCC(=O)OCC"
  answer-label: "class 0"
- molecule: "Cc1cc(=O)[nH]c(=S)[nH]1"
  answer-label: "class 0"
- molecule: "COc1ccc2c(c1)c(CC(=O)O)c(C)n2C(=O)c1ccc(Cl)cc1"
  answer-label: "class 0"
- molecule: "Cc1cccc([N+](=O)[O-])c1C"
  answer-label: "class 0"
- molecule: "CCCCc1ccc2c(n1)[C@@H](c1ccc(OC)cc1C[C@H](C)C(=O)O)[C@H](C(=O)O)[C@H]2c1ccc2c(c1)OCO2"
  answer-label: "class 0"
- molecule: "CC1=C(/C=C/C(C)=C/C=C/C(C)=C/CO)C(C)(C)CCC1"
  answer-label: "class 1"
- molecule: "Cc1ccc(C)c(C)c1"
  answer-label: "class 0"
- molecule: "Cc1ccccc1Cl"
  answer-label: "class 0"
- molecule: "Clc1cc(Cl)c(Cl)cc1Cl"
  answer-label: "class 0"
- molecule: "CCCCOC(=O)CCCCCCCCC(=O)OCCCC"
  answer-label: "class 0"
- molecule: "FC(F)(F)C(F)(F)C(F)(F)C(F)(F)C(F)(F)C(F)(F)CCI"
  answer-label: "class 0"
- molecule: "Cc1ccc(C)c(O)c1C"
  answer-label: "class 0"
- molecule: "CN1CCCC1=O"
  answer-label: "class 0"
- molecule: "NC(=O)Cn1c(=O)cc(CCN2CCN(c3nccc4sccc34)CC2)c2ccc(F)cc21"
  answer-label: "class 0"
- molecule: "O=C(OCCCCCOC(=O)c1ccccc1)c1ccccc1"
  answer-label: "class 1"
- molecule: "CN1CCN(Cc2cc(-c3ccc4[nH]c(=O)oc4c3)co2)[C@@H](c2ccc(F)cc2)C1"
  answer-label: "class 0"
- molecule: "O=C(O)CCCCC(=O)O"
  answer-label: "class 0"
- molecule: "Cc1ccc2ncccc2c1"
  answer-label: "class 0"
- molecule: "C=CCc1ccc(O)c(OC)c1"
  answer-label: "class 0"
- molecule: "CNCc1cc(F)ccc1Oc1ccc(Cl)c(Cl)c1"
  answer-label: "class 0"
- molecule: "Cc1nc(C)nc(N2C[C@@H](C)N(c3ccnc([C@@H](C)O)n3)[C@@H](C)C2)n1"
  answer-label: "class 0"
- molecule: "Nc1ccc2c(c1)C(=O)c1ccccc1C2=O"
  answer-label: "class 1"
- molecule: "Cc1nc(-c2ccc3c(c2)CCN(CCC2CCC(NC(=O)/C=C/c4ccc(F)cc4)CC2)CC3)no1 (stereo not given)"
  answer-label: "class 0"
- molecule: "CCCCCCOCCO"
  answer-label: "class 0"
- molecule: "O=C(N[C@@H](Cc1ccccc1)[C@@H](O)C(=O)N1C[C@@H](O)[C@@H](O)C1)c1cc2cc(Cl)ccc2[nH]1"
  answer-label: "class 0"
- molecule: "CC(=O)Oc1ccccc1C(=O)O"
  answer-label: "class 0"
- molecule: "CCCCCCC(=O)OCC"
  answer-label: "class 0"
- molecule: "COC(=O)c1ccc(O)cc1"
  answer-label: "class 0"
- molecule: "CN[C@H]1CC[C@@H](c2ccc(Cl)c(Cl)c2)c2ccc(S(N)(=O)=O)cc21"
  answer-label: "class 0"
- molecule: "COCCOC[C@H](CC1(C(=O)NC2CCC(C(=O)O)CC2)CCCC1)C(=O)Oc1ccc2c(c1)CCC2 (stereo not given in full)"
  answer-label: "class 0"
- molecule: "CCCCN(CCCC)CCCC"
  answer-label: "class 0"
- molecule: "COc1ccc(C)cc1N"
  answer-label: "class 0"
- molecule: "CC(CO)OC(C)CO (stereo not given) (tested in a mixture with another compound)"
  answer-label: "class 0"
- molecule: "C1CCC(SSC2CCCCC2)CC1"
  answer-label: "class 0"
- molecule: "CC(=O)C(C)=CC1C(C)=CCCC1(C)C (stereo not given)"
  answer-label: "class 0"
- molecule: "CC1(C)NC(=O)NC1=O"
  answer-label: "class 0"
- molecule: "NCC1(Cc2noc(=O)[nH]2)CCCCC1"
  answer-label: "class 0"
- molecule: "CCCCCCCCCCCCCCCCCC(=O)O"
  answer-label: "class 0"
- molecule: "Oc1ccc2c(c1)OC[C@@H](N1CCC(O)(c3ccc(F)cc3)CC1)[C@H]2O"
  answer-label: "class 0"
- molecule: "CC1(C)CC(N=C=O)CC(C)(CN=C=O)C1 (stereo not given)"
  answer-label: "class 0"
- molecule: "Cc1c(C(=O)O)c(O)cc2c1C(=O)c1c(O)c([C@@H]3O[C@H](CO)[C@@H](O)[C@H](O)[C@H]3O)c(O)c(O)c1C2=O"
  answer-label: "class 0"
- molecule: "NCCO"
  answer-label: "class 0"
